Where do the numbers come from? From paper PMC11434342.

molecular target: autotaxin (ATX) (Homo sapiens, UniProt Q13822); construct: gene ENPP2; human recombinant ATX (hATX); experiment: FS-3 fluorogenic substrate hydrolysis, dose-response with purified recombinant ATX ([…]); format: biochemical
experimental-readout: IC50

>>> assay_result("CCCCCCCCCCCCCCCc1ccc(CP(=O)(O)O)cc1 [BMP-22, reference compound]")
"0.2 µM"

====

molecular target: autotaxin (ATX) (Homo sapiens, UniProt Q13822); construct: gene ENPP2; human recombinant ATX (hATX); test: biochemical; parameters: Inhibition of hydrolysis of fluorogenic lysophospholipid substrate FS-3 by recombinant human autotaxin, fluorescence read-out; conditions: read-out: % inhibition in ATX assay at 10 µM
Class Condition met: inhibition at 10 µM at least 10%. Class Condition not met: inhibition at 10 µM below 10%.

>>> label_value("COC(=O)C(OCCCCOC1=CC(=O)CC(C)(C)C1)c1ccc(C(C)(C)C)cc1 (stereo not drawn) [ATX-4c]")
"Condition not met"
>>> label_value("CCC1=N[C@](C(=O)OC)(c2ccc(Br)cc2)[C@@H]2C(=O)N(C)C(=O)C12 (stereo partly drawn) [ATX-2a]")
"Condition met"
>>> label_value("COC(=O)C(OCCCCOC1=CC(=O)CC(C)(C)C1)c1cccc(Cl)c1 (stereo not drawn) [ATX-4f]")
"Condition met"
>>> label_value("CCOC(=O)C1C(C(=O)OCC)C12C(=O)N(C(C)=O)c1ccc(C)cc12 (stereo not drawn) [ATX-5j]")
"Condition not met"
>>> label_value("CCOC(=O)/C(=C1\\C(=O)N(C)C(=O)C1(c1ccccn1)C1CC(=O)N(C)C1=O)c1ccc(C)cc1 (stereo not drawn) [ATX-1f]")
"Condition not met"
>>> label_value("COC(=O)C(OCCCCOC1=CC(=O)CC(C)(C)C1)c1cccc(C(F)(F)F)c1 (stereo not drawn) [ATX-4i]")
"Condition met"
>>> label_value("COC(=O)C1(c2ccccc2)OC(c2cccc(OC)c2)C2C(=O)N(c3ccccc3)C(=O)C21 (stereo not drawn) [ATX-3g]")
"Condition not met"
>>> label_value("CCC1=N[C@](C(=O)OC)(c2cccc(OC)c2)[C@@H]2C(=O)N(C)C(=O)C12 (stereo partly drawn) [ATX-2c]")
"Condition met"
>>> label_value("CCC1=N[C@](C(=O)OC)(c2ccccc2)[C@@H]2C(=O)N(Cc3ccccc3)C(=O)C12 (stereo partly drawn) [ATX-2g]")
"Condition not met"
>>> label_value("COC(=O)C1(c2ccc(Cl)cc2)OC(c2ccc(F)cc2F)C2C(=O)N(c3ccccc3)C(=O)C21 (stereo not drawn) [ATX-3c]")
"Condition not met"
>>> label_value("COC(=O)/C(=C1\\C(=O)N(C)C(=O)C1(c1ccccn1)C1CC(=O)N(C)C1=O)c1ccc(C(C)(C)C)cc1 (stereo not drawn) [ATX-1a]")
"Condition met"
>>> label_value("COC(=O)C1(c2cccc(OC)c2)OC(c2cccc(Cl)c2)C2C(=O)N(Cc3ccccc3)C(=O)C21 (stereo not drawn) [ATX-3j]")
"Condition met"
>>> label_value("COC(=O)C1(c2ccc(Cl)cc2)OC(c2cccc(OC)c2)C2C(=O)N(c3ccccc3)C(=O)C21 (stereo not drawn) [ATX-3f]")
"Condition not met"

====

target: autotaxin (ATX) (Homo sapiens); construct: gene ENPP2; human recombinant ATX (hATX); test: biochemical; design: Inhibition of hydrolysis of fluorogenic lysophospholipid substrate FS-3 by recombinant human autotaxin, fluorescence read-out; conditions: read-out: % inhibition in ATX assay at 10 µM
experimental-readout: inhibition at 10 µM (%)

>>> assay_result("Cc1ccccc1C(OCCCCOC1=CC(=O)CC(C)(C)C1)C(=O)OCc1ccccc1 (centres unmarked) [ATX-4e]")
33.6
>>> assay_result("COC(=O)C1(c2ccccc2)OC(c2cccc(F)c2)C2C(=O)N(c3ccccc3)C(=O)C21 (centres unmarked) [ATX-3i]")
-37.4
>>> assay_result("CCOC(=O)C1C(C(=O)OCC)C12C(=O)N(C(=O)OC(C)(C)C)c1ccc(Br)cc12 (centres unmarked) [ATX-5g]")
-0.48
>>> assay_result("COC(=O)C(OCCCCOC1=CC(=O)CC(C)(C)C1)c1cccc(F)c1 (centres unmarked) [ATX-4j]")
41.4
>>> assay_result("CCOC(=O)C1C(C(=O)OCC)C12C(=O)N(C(C)=O)c1ccccc12 (centres unmarked) [ATX-5c]")
-4.52

====

Target: autotaxin (ATX) (Homo sapiens)
Construct: gene ENPP2; human recombinant ATX (hATX)
Assay: biochemical
Design: Inhibition of hydrolysis of fluorogenic lysophospholipid substrate FS-3 by recombinant human autotaxin, fluorescence read-out
Conditions: read-out: % inhibition in ATX assay at 10 µM
Description: Human recombinant ATX (hATX) was purified as previously described. The enzymatic activity of ATX was assessed by measuring the hydrolysis of the synthetic lipid-like FRET-based substrate FS-3 from Echelon Biosciences. […] Fluorescence readings were taken at 2 min intervals over 1 h using excitation and emission wavelengths of 485 and 538 nm. Fluorescence data were collected as relative fluorescence units (RFUs) and averaged for the triplicate samples. […]
experimental-readout: inhibition at 10 µM (%)

>>> assay_result("CCN1C(=O)CC(C2(c3ccccn3)C(=O)N(CC)C(=O)/C2=C(\\C(=O)OC)c2cccc(OC)c2)C1=O (centres unmarked)")
7.6
>>> assay_result("COC(=O)C(OCCCCOC1=CC(=O)CC(C)(C)C1)c1ccc(Br)cc1 (centres unmarked)")
18.7
>>> assay_result("CCC1=N[C@](C(=O)OC)(c2ccc(Br)cc2)[C@@H]2C(=O)N(Cc3ccccc3)C(=O)C12 (some centres unmarked)")
24.9
>>> assay_result("CCN1C(=O)CC(C2(c3ccccn3)C(=O)N(CC)C(=O)/C2=C(\\C(=O)OC)c2ccccc2)C1=O (centres unmarked)")
3.59
>>> assay_result("CCN1C(=O)C2C(c3cccc(F)c3)OC(C(=O)OC)(c3ccc(C(C)(C)C)cc3)C2C1=O (centres unmarked)")
-5.76
>>> assay_result("CCN1C(=O)C2C(C)=N[C@](C(=O)OC)(c3cccc(OC)c3)[C@@H]2C1=O (some centres unmarked)")
4.61
>>> assay_result("COC(=O)C(OCCCCOC1=CC(=O)CC(C)(C)C1)c1cccc(OC)c1 (centres unmarked)")
12.6
>>> assay_result("COC(=O)C(OCCCCOC1=CC(=O)CC(C)(C)C1)c1ccccc1 (centres unmarked)")
32.6
